System: NCI/ADR-RES ovarian
Experiment: NCI-60 one-dose screen, 48 h
Details: 10 µM unless noted
The panel holds about 83,000 compounds, 20% with a hit somewhere; the sample as a whole holds those more often. Active and inactive are the calls of the source. How the source made its calls: active means growth percent below 10; inactive means the rest.
Valid outcomes are listed here; reply with one: 1.0 for active, 0.0 for inactive

Study these solved cases before continuing.
CN(Cc1ccccc1)c1nc(Cl)c(C2CC(c3ccccc3)=NN2c2ccccc2)s1 (stereo unspecified)    0.0
COc1ccc(/C=C2\CN(C(=O)C(Cl)Cl)C/C(=C\c3ccc(OC)cc3)C2=O)cc1    0.0
COc1ccc(/C=C/C(c2cc(OC)c(OC)c(OC)c2)n2ccnc2)cc1O (stereo unspecified)    0.0
O=C(Nc1ccccc1N1CCCC1=O)c1oc2ccc(F)cc2c1-c1cnn(-c2ccccc2)c1    0.0
[2H]C([2H])([2H])Oc1ccc(F)cc1/C=C/C(=O)/C=C(O)/C=C/c1cc(F)ccc1OC([2H])([2H])[2H]    0.0
CN1CCN(c2ccc3nc4c(nc3c2C(F)(F)F)C(=O)c2ncccc2C4=O)CC1    0.0

INPUT: Look up the recorded call for CN(C)c1ccc(-c2ccc3c(c2)c(-c2ccccc2)nc(=O)n3C)cn1 in this test.
OUTPUT: 0.0

INPUT: Look up the recorded call for C=Cc1cnc(Nc2ccc(OC)cc2)nc1NCCCNC(=O)C1CCC1 in this test.
OUTPUT: 0.0

INPUT: Look up the recorded call for CN(Cc1cnc2nc(N)nc(N)c2n1)c1ccc(C(=O)NC(CCC(=O)O)C(=O)O)cc1Br (stereo unspecified) in this test.
OUTPUT: 0.0

INPUT: Look up the recorded call for c1ccc2c(c1)CCCc1nnc3nc4ccccc4n3c1-2 in this test.
OUTPUT: 0.0

INPUT: Look up the recorded call for C=CCC(CCCC)(C(=O)OCC)C(=O)OCC in this test.
OUTPUT: 0.0

###

Test system: EKVX NSCLC
Assay: NCI-60 one-dose screen, 48 h
Details: 10 µM unless noted
This is part of a sample that, as a whole, favours compounds with a hit. Of some 83,000 tested, about 20% had one in any assay. Active and inactive are the calls of the source. Rule for the calls: active = growth percent below 10; inactive = the rest.
Valid outcomes are listed here; reply with one: active, inactive

Study these solved cases before continuing.
CNC1=C([N+](=O)[O-])C(c2ccc(OC)cc2)C(C#N)=C(c2cccs2)O1 (stereo not drawn)    inactive
CCN(CC)CCN1C(=O)c2c(c(C)c3c(oc4ccc(OC)cc43)c2C)C1=O    inactive
[2H]C([2H])([2H])Oc1ccc(F)cc1/C=C/C(=O)/C=C(/C=C/c1cc(F)ccc1OC([2H])([2H])[2H])OB(F)F    inactive

INPUT: Look up the recorded call for CC1C=CC(OC(=O)C(C)(O)CCC(O)(C(=O)OC2CC(O)C(C(C)C)CC2(C)O)C(C)C)(C(C)C)CC1 (stereo not drawn) in this test.
OUTPUT: active

INPUT: Look up the recorded call for COc1cc(-c2nc3c(ncc4ccc(=O)n(-c5ccccc5)c43)s2)cc(OC)c1OC in this test.
OUTPUT: inactive

INPUT: Look up the recorded call for O=C(N/N=C/c1cc(Cl)ccc1O)c1ccccc1Nc1ccnc(C(F)(F)F)c1 in this test.
OUTPUT: inactive

INPUT: Look up the recorded call for C#COc1cccc(Nc2ncnc3cc(NC(=O)[C@@H](C)Cl)ccc23)c1 in this test.
OUTPUT: inactive

INPUT: Look up the recorded call for O=C1/C=C/[C@@H](O)[C@@H]2C[C@@H](O)C[C@H]2/C=C/CCC[C@H](CCO)O1 in this test.
OUTPUT: active

INPUT: Look up the recorded call for CN1C(=O)/C(=C/c2ccc(C(=O)Nc3ncc(Cc4cccc(Cl)c4)s3)cc2)SC1=S in this test.
OUTPUT: inactive

INPUT: Look up the recorded call for CC(=O)ON1CCCC(P(=O)(OCCSC(=O)C(C)(C)C)OCCSC(=O)C(C)(C)C)C1=O (stereo not drawn) in this test.
OUTPUT: inactive

INPUT: Look up the recorded call for Cc1ccc(-c2csc(N(C(=O)N3CCN(c4cc5c(cc4F)c(=O)c(C(=O)O)cn5C4CC4)CC3)c3ccccc3)n2)cc1 in this test.
OUTPUT: inactive

INPUT: Look up the recorded call for COc1ccc(C(=O)N2c3ccccc3Sc3ccccc32)c(C(F)(F)F)c1 in this test.
OUTPUT: inactive

INPUT: Look up the recorded call for O=C1/C(=C/c2ccccc2F)CN(C(=O)C(Cl)Cl)C/C1=C\c1ccccc1F in this test.
OUTPUT: active

Data provenance: PubChem BioAssay (NCI)
